FYI, the data here is from PubChem BioAssay (NCATS).

System: CP201
EXPERIMENTAL_PROTOCOL: qHTS profiling for inhibitors of Plasmodium falciparum proliferation (AID 504749);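 note: 0% = DMSO vehicle and full inhibition = artemisinin control; nearly all actives have a fitted effect of over 60% in size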
TEST_CONDITIONS: P. falciparum in erythrocytes, SYBR Green DNA, 72 h; series mostly up to 28.7 µM
Experimental: NIH National Institute of Allergy and Infectious Diseases [NIAID] NIH Chemical Genomics Center [NCGC] […] Because mature erythrocytes lack DNA, only Plasmodium-derived DNA is detected. NCGC Assay Protocol Summary: The SYBR Green viability assay was adapted from a method described previously (Plouffe et al., 2008). […] The following morning, fluorescence intensity at 485(14) nm excitation and 535(25) nm emission wavelengths was measured on an EnVision (Perkin Elmer) plate reader. […]
Records with an inconclusive call do not appear. Active and inactive are the calls of the source. Calls come from the whole dose curve; as a rule, active = well fitted inhibition curve with a large enough effect; inconclusive = small, poorly fitted or top-dose-only effect; inactive = flat fitted curve, though single readings scatter.
Select the correct class. Options are class 1 = active, class 0 = inactive and nothing else.

Worked examples, 3 molecules total:
- MOLECULE: "Cc1cc(C)cc(C(=O)OC2CC3CCC(C2)N3C)c1 (configuration not stated)"
  LABEL_VALUE: "class 0"
- MOLECULE: "CCN(CC)C(=O)N[C@@H]1C=C2c3cccc4[nH]cc(c34)C[C@H]2N(C)C1"
  LABEL_VALUE: "class 0"
- MOLECULE: "CCCCCC(O)C1C(=O)OC(C)C(O)\\C=C/C=C\\C=C/C=C\\C=C(\\C)C(O)C(O)C(O)CC(O)CC(O)CC(O)CC(O)CC1O (configuration not stated)"
  LABEL_VALUE: "class 0"

Query block: // param item: CCCC(C)C1(CC)C(=O)NC(=S)NC1=O (configuration not stated) ; yields the recorded call
Result block: class 0

Query block: Fill in: this test's call for COC(=O)C1C(OC(=O)c2ccccc2)CC2CCC1N2C (configuration not stated) is ___
Result block: class 0
